# key: entry, value: IC50
tested system: UniProtKB Q07440
Sequence (Q07440 whole entry): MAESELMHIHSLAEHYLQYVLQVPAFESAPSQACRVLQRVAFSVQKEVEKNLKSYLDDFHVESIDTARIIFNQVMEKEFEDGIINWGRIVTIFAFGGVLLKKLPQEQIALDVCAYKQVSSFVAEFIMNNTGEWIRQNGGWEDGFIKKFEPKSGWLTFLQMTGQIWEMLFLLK
assay: small-molecule antagonists of Bfl-1/BH3 interaction – biochemical, TR-FRET, mouse Bfl-1, confirmation (AID 621);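 also: TR-FRET binding of GST-Bfl-1 to FITC-labelled Bid peptide via terbium antibody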
Active and inactive are the calls of the source.

given smiles	IC50
O=C1C(Cl)=C(N2CCN(CCNCc3ccccn3)CC2)C(=O)N1c1ccc(Cl)c(Cl)c1	8.14 µM (active)
CN1CCN(C2=C(Cl)C(=O)N(c3c(Cl)cccc3Cl)C2=O)CC1	3.72 µM (active)
O=C1C(Cl)=C(N2CCN(CCOCCO)CC2)C(=O)N1c1ccc(Cl)c(Cl)c1	0.42 µM (active)
O=C1C(Cl)=C(Cl)C(=O)N1c1cccc([N+](=O)[O-])c1	16.4 µM (active)

* * *

tested system: Microphthalmia-associated transcription factor (Homo sapiens)
Sequence (O75030 whole entry): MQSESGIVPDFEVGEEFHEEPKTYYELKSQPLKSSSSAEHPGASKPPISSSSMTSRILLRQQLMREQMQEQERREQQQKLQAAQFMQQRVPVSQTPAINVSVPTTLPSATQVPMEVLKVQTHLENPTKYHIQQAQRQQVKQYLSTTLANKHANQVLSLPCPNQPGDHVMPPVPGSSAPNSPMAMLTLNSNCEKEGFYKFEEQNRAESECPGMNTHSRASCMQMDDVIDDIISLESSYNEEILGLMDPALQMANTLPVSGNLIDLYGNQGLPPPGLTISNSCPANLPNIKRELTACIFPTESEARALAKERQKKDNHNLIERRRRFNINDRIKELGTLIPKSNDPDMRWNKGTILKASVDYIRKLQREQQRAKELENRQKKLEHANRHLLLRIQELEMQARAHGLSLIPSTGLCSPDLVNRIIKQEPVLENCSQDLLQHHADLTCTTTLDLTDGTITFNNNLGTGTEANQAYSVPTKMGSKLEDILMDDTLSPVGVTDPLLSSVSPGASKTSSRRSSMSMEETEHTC
assay: reducers of TRPM1 reporter luminescence, concentration series – cell-based, SK-MEL-5, cherry-picked, set 3, MITF inhibitor project, dose response (AID 493073);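 also: SK-MEL-5 melanoma cells with luciferase driven by the MITF target TRPM1 promoter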
Type: functional
Calls of active or inactive are those of the source.
Each item that follows carries a reported AC50.
experimental endpoint: AC50

compound	reported result
O=C(/C=C/c1ccc([N+](=O)[O-])s1)N1CCCC1	9.86 µM (active)
CC(C)(C)C(=O)/C(=C/c1ccncc1)n1cncn1	6.63 µM (active)
O=C(N/N=C/c1ccc(F)cc1)c1c(O)nc2ccccc2c1O	9.64 µM (active)
CCCCCCN1C=CC(=C2C(=O)c3ccccc3C2=O)C=C1	3.86 µM (active)
CC(C)(C)c1ccc(-c2noc(CCC(=O)NCC3CCCO3)n2)cc1 (centres undefined)	0.275 µM (active)
CCOC(=O)C(=Cc1ccc(-n2ccnc2)cc1)C(=O)OCC	9.38 µM (active)
Cc1cc(C)cc(NC(=O)c2ccc([N+](=O)[O-])o2)c1	16.6 µM (active)
Cc1ccc(C(C)C)c(OCc2n[n+](CC(=O)c3ccc(Cl)cc3)c3n2CCCCC3)c1	9.83 µM (active)
C=C1C(=O)O[C@@H]2[C@H]1[C@@H](OC(=O)/C(C)=C/C)C/C(C)=C\C(=O)/C=C(\C)[C@@H]2O	7.07 µM (active)

* * *

tested system: Intestinal-type alkaline phosphatase (Homo sapiens)
Sequence (P09923 whole entry): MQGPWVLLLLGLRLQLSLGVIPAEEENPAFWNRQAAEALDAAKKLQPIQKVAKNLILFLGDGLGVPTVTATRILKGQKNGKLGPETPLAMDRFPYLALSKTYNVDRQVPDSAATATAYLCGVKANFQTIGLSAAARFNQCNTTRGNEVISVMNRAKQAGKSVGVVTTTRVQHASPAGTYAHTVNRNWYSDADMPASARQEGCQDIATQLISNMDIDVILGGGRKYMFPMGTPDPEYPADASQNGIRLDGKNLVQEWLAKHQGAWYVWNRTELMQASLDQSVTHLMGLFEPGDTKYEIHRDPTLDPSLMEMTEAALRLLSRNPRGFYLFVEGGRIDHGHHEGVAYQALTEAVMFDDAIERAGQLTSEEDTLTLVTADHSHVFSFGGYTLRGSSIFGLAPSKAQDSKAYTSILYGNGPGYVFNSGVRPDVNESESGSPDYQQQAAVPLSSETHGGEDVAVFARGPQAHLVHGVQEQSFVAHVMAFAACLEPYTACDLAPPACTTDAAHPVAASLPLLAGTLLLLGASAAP
assay: human intestinal alkaline phosphatase activators, dose response, biochemical, luminescence, uHTS hits (AID 463120)
Type: functional
Active and inactive are the calls of the source.
Outcomes: YES (active), NO (inactive)

given smiles	discrete label
c1ccc(Nc2ccnc(Nc3ccccc3)n2)cc1	NO
COc1ccccc1N(C)S(=O)(=O)c1ccc(Cl)c(C(=O)NNC(=O)c2ccccc2O)c1	YES
O=C(NC(=S)NNC(=O)c1ccccc1O)c1ccc(F)cc1	YES
O=C(N/N=C/c1ccc(O)cc1O)C(=O)N/N=C/c1ccc(O)cc1O	YES
O=C(N/N=C/c1c(F)cccc1Cl)c1cc(C2CC2)[nH]n1	YES

* * *

tested system: fMet-Leu-Phe receptor (Homo sapiens, UniProt P21462)
Sequence (P21462 whole entry): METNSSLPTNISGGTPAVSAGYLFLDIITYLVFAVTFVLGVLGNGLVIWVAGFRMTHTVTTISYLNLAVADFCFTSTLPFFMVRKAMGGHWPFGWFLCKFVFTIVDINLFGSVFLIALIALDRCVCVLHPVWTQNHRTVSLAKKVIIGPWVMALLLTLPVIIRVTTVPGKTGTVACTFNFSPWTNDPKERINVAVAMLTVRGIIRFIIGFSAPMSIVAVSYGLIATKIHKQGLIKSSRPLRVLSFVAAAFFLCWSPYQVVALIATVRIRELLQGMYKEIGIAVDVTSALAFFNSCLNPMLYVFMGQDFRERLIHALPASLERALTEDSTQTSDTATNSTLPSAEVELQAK
assay: formyl peptide receptor binders – dose response (AID 519)
Assay type: functional
Counter-ions that a name gives are not always drawn. Active and inactive are the calls of the source.
Documented Ki across a set of compounds

compound	Ki
CCOC(=O)c1cc(NC(=O)C2C3CCC(O3)C2C(=O)O)cc(C(=O)OCC)c1 (centres undefined)	> 66.7 µM (inactive)
COc1ccc(-c2cc(C(F)(F)F)nc(N3CCN(Cc4ccccc4)CC3)n2)cc1OC	> 66.7 µM (inactive)
CC1=C(C(=O)OC(C)C)[C@]2(C(=O)N(CC(N)=O)c3ccccc32)C(C#N)=C(N)O1	> 66.7 µM (inactive)
COc1cccc2c1C(=O)c1c(O)c3c(c(O)c1C2=O)C[C@@](O)(C(C)=O)C[C@@H]3O[C@H]1C[C@H](N)[C@H](O)[C@H](C)O1 [DAUNORUBICIN HYDROCHLORIDE]	> 66.7 µM (inactive)
